Hey, just so you know, these numbers are from ChEMBL document CHEMBL3885861.

species: Rattus norvegicus; test: Open TG-GATES - Regimen: Daily Repeat; type: toxicity, organism-based, Sprague-Dawley; design: regimen Daily Repeat, gender Male, age 6 weeks; details: in vivo, po, 0 mg/kg, […], tissue Blood, route gavage, dose level Control, time 14 day
Please go through the items and note down their Eos.
Please respond with the number in % and leave the unit unwritten.

Could you tell me which Eos is on file for Cn1cc[nH]c1=S ?
0.6

Could you tell me which Eos is on file for CCOC(=O)C(C)(C)Oc1ccc(Cl)cc1 [CLOFIBRATE] ?
0.8

Could you tell me which Eos is on file for Cc1cccc(C)c1OCC(C)N (centres undefined) ?
0.8

Could you tell me which Eos is on file for C[C@H]1C(=O)O[C@@H]2CCN3CC=C(COC(=O)[C@](C)(O)[C@]1(C)O)[C@H]23 ?
1

Could you tell me which Eos is on file for C=C(C)[C@H]1Cc2c(ccc3c2O[C@@H]2COc4cc(OC)c(OC)cc4[C@@H]2C3=O)O1 ?
1

Could you tell me which Eos is on file for O=C1CN(/N=C/c2ccc([N+](=O)[O-])o2)C(=O)N1 ?
0.6

Could you tell me which Eos is on file for OCCN1CCN(CCCN2c3ccccc3Sc3ccc(C(F)(F)F)cc32)CC1 ?
0.6

Could you tell me which Eos is on file for O=[N+]([O-])c1ccc(O)c([N+](=O)[O-])c1 ?
1

Could you tell me which Eos is on file for C[C@H]1O[C@H](O[C@H]2[C@H](O)[C@@H](O)[C@@H](O[C@H]3[C@H](O)[C@@H](O)C(O)O[C@@H]3CO)O[C@@H]2CO)[C@H](O)[C@@H](O)[C@@H]1N[C@H]1C=C(CO)[C@@H](O)[C@H](O)[C@H]1O (some centres undefined) ?
0.8
